These entries and their values trace back to the supplement of paper PMC9170038.

- Test system: K4 kissing-loop RNA reporter;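 further: bound reporter read as fluorescence of individual clusters on recovered sequencing chips by microscopy, with normalized cluster intensities fitted with a binding model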
- Procedure Details: apparent KD of K4 kissing-loop reporter; higher = weaker reporter binding
- Recorded Conditions: Eterna round: R107; input ligand: none
Value Kind: apparent KD of K4 kissing-loop reporter

Field: example entries. Status: answers known.
# Sequence Text, apparent KD of K4 kissing-loop reporter
measured = [
    ("UUUAAAUAUAGUGAUGUUAUAUAACAAUGACGAGGACCGGUACGGCCGCCACUCGAGAGAGAUAAUGGUCGUUAGAAUCUAACGC [AstrosSSTryA#5]", "0.685 µM"),
    ("GAACGGCGGGCGGCCGCCACUGGUAUACGAGUGAUGUUCGGAUAUACGUGAUGUAAGGUAAUUAUCAGGACCGGGUCAGAGCCGG [#16 K4 Tryptophan B Same State]", "0.303 µM"),
    ("AAGUCUCGUUAAUUCGUGGUUUCGAUCGAUACCAGUAGCGAGAGUUACCCUUGGCAGCGAAAUGAGUGAUGUUCAUGAAAGAAGA [KL-XTheoA10]", "0.0646 µM"),
    ("UGGAUAUAGUGAUGUUAUAUAGAGAUGGAUACCAGUUGAGAGAAUAGCCCUUGGCAGCCGAAAGAAGUAUCAUUAGAGAAGAAUG [ExTheophyl.Ak]", "0.23 µM"),
    ("GAAGUACAGGCGGCCGCCACUAGUGAUGUUAGUGAUAAAAGAUAUAGUAAAUAUCGGCAUGUAGAUAGGACCGGGCCUGAUGGAG [ggbgmullin]", "0.256 µM"),
]

Note to self: apparent KD of K4 kissing-loop reporter recorded for AUCUAUGAGCGAGGAUAUGCAUGACGCGAGUGAUGUUCGCGAUGUGGGCGUGAUUAGUAAUAUGAAGCAGAAGGCGCACUCAUGA [Exclusion - FMW B / A] was 0.153 µM
